target: Recombinant human EIF2AK3 (PERK) catalytic domain (amino acids 536-1116) (Homo sapiens (Human), UniProt Q9NZJ5); experiment: PERK In Vitro Activity Assay (isolated), TR-FRET kinase assay; conditions: isolated PERK enzyme, 1.5 μM ATP, read-out: Biochemical IC50
Sequence (Q9NZJ5 536-1116): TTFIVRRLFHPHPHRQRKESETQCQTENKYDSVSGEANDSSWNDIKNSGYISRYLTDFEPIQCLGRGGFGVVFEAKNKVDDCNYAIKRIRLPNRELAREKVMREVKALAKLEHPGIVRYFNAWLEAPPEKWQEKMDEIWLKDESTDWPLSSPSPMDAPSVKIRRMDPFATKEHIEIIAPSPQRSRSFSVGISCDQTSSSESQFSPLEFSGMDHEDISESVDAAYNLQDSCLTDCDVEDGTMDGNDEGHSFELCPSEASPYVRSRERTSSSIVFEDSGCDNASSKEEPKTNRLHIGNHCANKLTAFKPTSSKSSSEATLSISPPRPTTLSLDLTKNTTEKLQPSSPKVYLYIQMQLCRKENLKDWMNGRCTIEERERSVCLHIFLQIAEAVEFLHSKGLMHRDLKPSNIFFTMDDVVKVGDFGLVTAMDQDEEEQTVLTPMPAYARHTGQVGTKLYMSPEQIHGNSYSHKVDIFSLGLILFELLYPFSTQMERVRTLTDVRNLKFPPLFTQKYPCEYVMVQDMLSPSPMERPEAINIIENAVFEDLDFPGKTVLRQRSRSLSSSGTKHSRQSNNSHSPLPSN
Assay metric: IC50

Quick check: IC50 of [2H]C([2H])([2H])c1nc(-c2ccc(NC(=O)C(O)c3cccc(F)c3)c(F)c2F)c2c(N)nc(C)cn12 (stereo not shown) [Example 131] ? 501 to 1000 nM

Quick check: IC50 of [2H]C([2H])([2H])c1nc(-c2ccc(NC(=O)C(O)c3cccc(F)c3)c(F)c2F)c2c(N)ncc(C(F)(F)F)n12 (stereo not shown) [Example 134] ? 1 to 25 nM

Quick check: IC50 of Cc1cn2c(C)nc(-c3ccc(NC(=O)C(O)c4cccc(F)c4)cc3C)c2c(N)n1 (single isomer, unassigned) [Example 4] ? 51 to 100 nM

Quick check: IC50 of Cc1cc(NC(=O)C(O)c2cccc(F)c2)ccc1-c1nc(C)n2c(C)cnc(N)c12 (stereo not shown) [Example 8] ? 1 to 25 nM

Quick check: IC50 of [2H]C([2H])([2H])c1nc(-c2ccc(NC(=O)C(O)c3cccc(C(F)(F)F)c3)c(F)c2F)c2c(N)ncc(Cl)n12 (stereo not shown) [Example 152] ? 1 to 25 nM

Quick check: IC50 of [2H]C([2H])([2H])c1nc(-c2ccc(NC(=O)C(O)c3cccc(Cl)c3)cc2C)c2c(N)ncc(C)n12 (stereo not shown) [Example 37] ? 1 to 25 nM

Quick check: IC50 of [2H]C([2H])([2H])c1nc(-c2ccc(NC(=O)C(O)c3cccc(Cl)c3)cc2C)c2c(N)ncc(C)n12 (stereo not shown) [Example 36] ? 1 to 25 nM
